Provide the recorded TLR9 100 nM for the entries that follow.
Biological target: human TLR9 (Homo sapiens)
Construct: HA; host or cells: 293XL-hTLR9-HA (HEK293)
Sequence (Q9NR96 26-1032): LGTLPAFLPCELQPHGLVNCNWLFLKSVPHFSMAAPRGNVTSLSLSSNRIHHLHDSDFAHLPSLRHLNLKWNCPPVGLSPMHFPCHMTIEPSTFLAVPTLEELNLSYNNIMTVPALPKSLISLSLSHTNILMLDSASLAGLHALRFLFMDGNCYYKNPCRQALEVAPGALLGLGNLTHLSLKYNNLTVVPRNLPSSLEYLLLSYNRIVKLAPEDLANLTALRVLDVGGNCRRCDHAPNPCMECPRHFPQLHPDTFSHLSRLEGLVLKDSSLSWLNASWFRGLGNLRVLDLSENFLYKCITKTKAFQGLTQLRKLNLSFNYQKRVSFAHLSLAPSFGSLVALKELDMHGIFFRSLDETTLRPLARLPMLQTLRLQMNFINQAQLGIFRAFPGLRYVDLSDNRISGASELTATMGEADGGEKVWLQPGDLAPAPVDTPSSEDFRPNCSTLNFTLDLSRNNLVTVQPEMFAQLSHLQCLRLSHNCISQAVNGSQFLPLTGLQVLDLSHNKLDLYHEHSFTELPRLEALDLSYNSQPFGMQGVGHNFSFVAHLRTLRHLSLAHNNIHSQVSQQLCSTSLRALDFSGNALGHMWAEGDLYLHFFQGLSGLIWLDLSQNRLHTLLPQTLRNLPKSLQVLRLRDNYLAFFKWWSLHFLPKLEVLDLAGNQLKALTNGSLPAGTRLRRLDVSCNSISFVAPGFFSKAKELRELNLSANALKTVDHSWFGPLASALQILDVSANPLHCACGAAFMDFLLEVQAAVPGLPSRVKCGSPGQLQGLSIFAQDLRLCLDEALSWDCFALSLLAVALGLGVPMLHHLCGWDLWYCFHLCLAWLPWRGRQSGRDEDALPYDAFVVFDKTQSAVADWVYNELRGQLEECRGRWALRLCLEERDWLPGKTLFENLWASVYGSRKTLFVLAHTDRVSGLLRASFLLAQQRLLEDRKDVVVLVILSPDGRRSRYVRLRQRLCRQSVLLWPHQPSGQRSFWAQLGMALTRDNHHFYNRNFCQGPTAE
Experiment: HEK-TLR9 NF-κB-luciferase reporter, ODN2006 stimulation
Assay type: cell-based
Details: MOE-modified ASO at 100 nM; averaged NF-κB-Luciferase relative to ODN2006 condition
Respond with the number and no other words.

(Q) State the measured TLR9 100 nM (human TLR9 (Homo sapiens)) of CTCTTGAAGCATCGTATCAC (antisense; 2'-MOE modified, pattern not given here) [CTNN2B-3648 MOE]
(A) 0.721

(Q) State the measured TLR9 100 nM (human TLR9 (Homo sapiens)) of CAACACTTCGTGGGGTCCTT (antisense; 2'-MOE modified, pattern not given here) [HPRT-665 MOE]
(A) 0.858

(Q) State the measured TLR9 100 nM (human TLR9 (Homo sapiens)) of TTTGCACACTTCGTACCCAA (antisense; 2'-MOE modified, pattern not given here) [CAMSAP1-4916 MOE]
(A) 0.735

(Q) State the measured TLR9 100 nM (human TLR9 (Homo sapiens)) of TCCAACACTTCGTGGGGTCC (antisense; 2'-MOE modified, pattern not given here) [HPRT-667 MOE]
(A) 0.792

(Q) State the measured TLR9 100 nM (human TLR9 (Homo sapiens)) of TTGGCTCGGCTTGCCTACTT (antisense; 2'-MOE modified, pattern not given here) [CAMSAP1-5594 MOE]
(A) 0.705

(Q) State the measured TLR9 100 nM (human TLR9 (Homo sapiens)) of TTCTGCAGCTTCCTTGTCCT (antisense; 2'-MOE modified, pattern not given here) [CTNN2B-2136 MOE]
(A) 0.746

(Q) State the measured TLR9 100 nM (human TLR9 (Homo sapiens)) of GATGGCCTCCCATCTCCTTC (antisense; 2'-MOE modified, pattern not given here) [HPRT-329 MOE]
(A) 0.662

(Q) State the measured TLR9 100 nM (human TLR9 (Homo sapiens)) of ACAGTGTTGAGATACTCGGG (antisense; 2'-MOE modified, pattern not given here) [EGFR-3652 MOE]
(A) 0.436

(Q) State the measured TLR9 100 nM (human TLR9 (Homo sapiens)) of GTCCTTGCACGTGGCTTCGT (antisense; 2'-MOE modified, pattern not given here) [EGFR-1013 MOE]
(A) 0.682

(Q) State the measured TLR9 100 nM (human TLR9 (Homo sapiens)) of GGTTTTGGCTGGGATCAAGT (antisense; 2'-MOE modified, pattern not given here) [CAMSAP1-4697 MOE]
(A) 0.381

(Q) State the measured TLR9 100 nM (human TLR9 (Homo sapiens)) of GCTTCAGGCGCTGCCTTGCC (antisense; 2'-MOE modified, pattern not given here) [CAMSAP1-2709 MOE]
(A) 0.833

(Q) State the measured TLR9 100 nM (human TLR9 (Homo sapiens)) of CTGTGATCTTGACATGCTGC (antisense; 2'-MOE modified, pattern not given here) [EGFR-2790 MOE]
(A) 0.506

(Q) State the measured TLR9 100 nM (human TLR9 (Homo sapiens)) of CGGAGGTCTTGGCTTCGTGG (antisense; 2'-MOE modified, pattern not given here) [MB21D1-525 MOE]
(A) 0.938

(Q) State the measured TLR9 100 nM (human TLR9 (Homo sapiens)) of TGGGCTGGAATCCGAGTTAT (antisense; 2'-MOE modified, pattern not given here) [EGFR-4705 MOE]
(A) 0.443

(Q) State the measured TLR9 100 nM (human TLR9 (Homo sapiens)) of ACTGACTGTCTTGAGGGTTC (antisense; 2'-MOE modified, pattern not given here) [MB21D1-1483 MOE]
(A) 0.424

(Q) State the measured TLR9 100 nM (human TLR9 (Homo sapiens)) of GTGTCCTTGCACGTGGCTTC (antisense; 2'-MOE modified, pattern not given here) [EGFR-1015 MOE]
(A) 0.784

(Q) State the measured TLR9 100 nM (human TLR9 (Homo sapiens)) of TAGTCAAGGGCATATCCTAC (antisense; 2'-MOE modified, pattern not given here) [HPRT-732 MOE]
(A) 0.787

(Q) State the measured TLR9 100 nM (human TLR9 (Homo sapiens)) of GCTGACAAAGATTCACTGGT (antisense; 2'-MOE modified, pattern not given here) [HPRT-1353 MOE]
(A) 0.653

(Q) State the measured TLR9 100 nM (human TLR9 (Homo sapiens)) of ATCCAACACTTCGTGGGGTC (antisense; 2'-MOE modified, pattern not given here) [HPRT-668 MOE]
(A) 0.287

(Q) State the measured TLR9 100 nM (human TLR9 (Homo sapiens)) of GGAGATTTCAGAGCAGCTTC (antisense; 2'-MOE modified, pattern not given here) [EGFR-4885 MOE]
(A) 0.541

(Q) State the measured TLR9 100 nM (human TLR9 (Homo sapiens)) of CACCCACTTGGCAGACCATC (antisense; 2'-MOE modified, pattern not given here) [CTNN2B-1576 MOE]
(A) 0.665

(Q) State the measured TLR9 100 nM (human TLR9 (Homo sapiens)) of CAAGGCCCTTCGCACTTCTT (antisense; 2'-MOE modified, pattern not given here) [EGFR-1225 MOE]
(A) 0.624
